Data credit: PubChem BioAssay (NCI)

System: A498 renal
Assay: NCI-60 one-dose screen, 48 h
Conditions: 10 µM
Compounds without any hit were thinned out: in the full panel of roughly 83,000, 20% have a hit. The source made the active and inactive calls. How the source made its calls: active means growth percent below 10; inactive means the rest.
Outcome codes: active, inactive

structure_smiles=N#Cc1c(-c2ccc(F)cc2)nc(SCc2ccc(F)cc2)nc1N1CCOCC1 assigned_category=inactive
structure_smiles=CCCCSc1nc(Nc2ccc(/C(C)=N/NC(N)=S)cc2)c(C#N)c(-c2ccccc2)n1 assigned_category=inactive
structure_smiles=C=CC(=O)Nc1ccc(C(=O)/C=C/c2ccc(N(C)CCF)cc2)c(O)c1 assigned_category=inactive
structure_smiles=O=C1Nc2ccc(Cl)cc2/C1=C/c1cccc(OCc2ccccn2)c1 assigned_category=inactive
structure_smiles=OCCCNc1oc(-c2ccccc2)nc1[P+](c1ccccc1)(c1ccccc1)c1ccccc1 assigned_category=inactive
structure_smiles=O=S(=O)(Nc1ncccn1)c1ccc(-n2c(-c3ccccc3)nc(-c3ccccc3)c2-c2ccccc2)cc1 assigned_category=inactive
structure_smiles=COc1ccc(-c2cc(C(=O)N=Nc3c(O)[nH]c4ccccc34)c3ccccc3n2)cc1 assigned_category=inactive
structure_smiles=O=C1NC(=NC2CCCCCC2)N/C1=C\c1ccc2ncoc2c1 assigned_category=active
structure_smiles=O=C(Nc1ccc(I)cc1F)c1cc(-c2ccc(F)cc2F)ccc1O assigned_category=active
structure_smiles=CN1C(=O)/C(=C/c2ccc3ncsc3c2)NC1=NC12CC3CC(CC(O)(C3)C1)C2 assigned_category=active
structure_smiles=CC(=O)c1ccc(Nc2nc(SCCC(C)C)nc(-c3ccc(F)cc3)c2C#N)cc1 assigned_category=inactive
structure_smiles=O=C(/C=C/Nc1ccc(F)cc1F)c1ccc2c(c1)Nc1ccccc1S2 assigned_category=inactive
structure_smiles=CN(C(=O)c1ccc(C(C)(C)C)cc1)c1sc2c(c1C#N)CCC(=O)C2 assigned_category=inactive
structure_smiles=COc1ccc(C(=O)/C=C/c2cc(F)cc(C(F)(F)F)c2)cc1S(N)(=O)=O assigned_category=inactive
structure_smiles=O=C1N/C(=N\c2nccs2)S/C1=C\c1cccs1 assigned_category=inactive
structure_smiles=Nc1nc(-c2ccccc2)cc(-c2cc3ccccc3nc2Cl)n1 assigned_category=inactive
structure_smiles=CC(C)C(=O)Nc1ccc(C(=O)NC(=S)Nc2ccc(C(=O)O)cc2)cc1 assigned_category=inactive
structure_smiles=CC1(C)CC[C@]2(C(=O)NCCCNCCCCNCCCN)CC[C@]3(C)C(=CC[C@@H]4[C@@]5(C)Cc6c([nH]c7ccccc67)C(C)(C)[C@@H]5CC[C@]43C)[C@H]2C1 assigned_category=inactive
structure_smiles=C=C(C)[C@@H]1CC[C@]2(C(=O)OC)CC[C@]3(C)[C@H](CC[C@@H]4[C@@]5(C)CC[C@H](N)C(C)(C)[C@@H]5CC[C@]43C)[C@@H]12 assigned_category=active
